Target: human Syk (GST-Syk) (Homo sapiens, UniProt P43405)
Construct: A cDNA fragment encoding human Syk openreading frame was cloned; made in house; host or cells: Sf21 insect cells (baculovirus, transfer vector pAcG2T)
Test: Syk tyrosine kinase inhibitory assay
Type: biochemical
Conditions: Table 17; IC50 classes; read-out: Activity grade
From the text: [Syk Tyrosine Kinase Inhibitory Assay] (1) Preparation of Syk Protein A cDNA fragment encoding human Syk openreading frame was cloned from total RNA of human Burkitt's lymphoma B cell lines, Raji (American Type Culture Collection), with the use of RT-PCR method. The cDNA fragment was inserted into pAcG2T (Pharmingen, San Diego, Calif.) to construct a baculovirus transfer vector. […]
pIC50: −log10 of the molar value.
Item-by-item account of pIC50

Qu. Given `COc1ccc(-c2cc3nccn3c(Sc3ccc(CCc4nnn[nH]4)cc3)n2)cc1OC` , state its recorded pIC50.
Ans. > 6.30

* * *

Target: human Syk (GST-Syk) (Homo sapiens, UniProt P43405)
Construct: A cDNA fragment encoding human Syk openreading frame was cloned; made in house; host or cells: Sf21 insect cells (baculovirus, transfer vector pAcG2T)
Assay: Syk tyrosine kinase inhibitory assay
Type: biochemical
Conditions: Table 11; read-out: Activity grade
Source text: [Syk Tyrosine Kinase Inhibitory Assay] (1) Preparation of Syk Protein A cDNA fragment encoding human Syk openreading frame was cloned from total RNA of human Burkitt's lymphoma B cell lines, Raji (American Type Culture Collection), with the use of RT-PCR method. The cDNA fragment was inserted into pAcG2T (Pharmingen, San Diego, Calif.) to construct a baculovirus transfer vector. […]
readout.kind: IC50

Recorded IC50, per entry:
>>> result("COc1ccc(Nc2nc(-c3ccc(OC)c(OC)c3)cc3ncnn23)cc1 [Example 12-15]")
"< 500 nM"
>>> result("COc1ccc(-c2cc3nccn3c(Nc3cnccc3C(N)=O)n2)cc1OC [Example 12-61]")
"500 to 2000 nM"
>>> result("COc1ccc(-c2cc3nccn3c(Nc3ccccc3)n2)cc1OC(C)=O [Example 12-17]")
"< 500 nM"
>>> result("COc1ccc(-c2cc3nccn3c(Nc3cccc(C(F)(F)F)c3)n2)cc1OC [Example 12-13]")
"500 to 2000 nM"
>>> result("CCSc1nc(-c2ccc(N(C)CCOC)c(OC)c2)cc2nccn12 [Example 12-50]")
"< 500 nM"
>>> result("COCCCN(C)c1ccc(-c2cc3nccn3c(Nc3ccc(OC)cc3)n2)cc1OC [Example 12-56]")
"< 500 nM"
>>> result("COc1ccc(Nc2nc(-c3ccc(N(C)C)c(OC)c3)cc3nccn23)cc1 [Example 12-52]")
"< 500 nM"
>>> result("COc1cc(-c2cc3nccn3c(Nc3ccc(C)cc3)n2)ccc1N1CCOCC1 [Example 12-47]")
"< 500 nM"
>>> result("CCOCCOc1ccc(-c2cc3nccn3c(Nc3ccccc3)n2)cc1OCCOCC [Example 12-24]")
"500 to 2000 nM"
>>> result("COc1ccc(-c2cc3nccn3c(Nc3ccccc3)n2)cc1OCc1ccccc1 [Example 12-27]")
"2000 to 10000 nM"

Qu. Given c1ccc(Nc2nc(-c3ccc4c(c3)OCCO4)cc3nccn23)cc1 [Example 12-21] , state its recorded IC50.
Ans. 500 to 2000 nM

Qu. Given COc1cc(-c2cc3nccn3c(Nc3ccccc3)n2)ccc1OCc1ccccc1 [Example 12-18] , state its recorded IC50.
Ans. 500 to 2000 nM

Qu. Given COc1ccc(-c2cc3nccn3c(Nc3cnccc3C(N)=O)n2)cc1OC [Example 12-45] , state its recorded IC50.
Ans. < 500 nM

Qu. Given COc1ccc(-c2cc3nccn3c(Nc3cccnc3)n2)cc1OC [Example 12-7] , state its recorded IC50.
Ans. < 500 nM

Qu. Given COc1ccc(-c2cc3nccn3c(NC3=NNCS3)n2)cc1OC [Example 12-31] , state its recorded IC50.
Ans. 500 to 2000 nM

Qu. Given COc1ccc(-c2cc3nccn3c(Nc3ccc4[nH]ncc4c3)n2)cc1OC [Example 12-2] , state its recorded IC50.
Ans. < 500 nM

Qu. Given COc1ccc(-c2cc3nccn3c(Nc3ccccc3)n2)cc1OCCN1CCOCC1 [Example 12-25] , state its recorded IC50.
Ans. < 500 nM

Qu. Given COc1ccc(Nc2nc(-c3ccc(N(C)CCCN4CCOCC4)c(OC)c3)cc3nccn23)cc1 [Example 12-55] , state its recorded IC50.
Ans. < 500 nM

Just for reference, patent US6911443B2 is where these values come from.
